test system: SK-OV-3/CBP; experiment: MTT viability assay in carboplatin-resistant SK-OV-3/CBP cells; format: cell-based, human; conditions: 72 h, MTT, carboplatin-resistant subline, mean ± SD
Parameter Measured: pIC50
Units for pIC50: none; it is -log10 of a concentration expressed in mol/L.

Exercise: Which value of pIC50 has been reported for N.N.O=C([O-])C1(C(=O)[O-])CCC1.[Pt+2] [carboplatin, reference compound] in the records?
Solution: 4.05

* * *

test system: MES-OV/CBP; assay: MTT viability assay in carboplatin-resistant MES-OV/CBP cells; format: cell-based, human; conditions: 72 h, MTT, carboplatin-resistant subline, mean ± SD
Parameter Measured: IC50 (µM)
I only need the number, in µM, no unit after it.

Exercise: Which value of IC50 has been reported for N.N.O=C([O-])C1(C(=O)[O-])CCC1.[Pt+2] [carboplatin, reference compound] in the records?
Solution: 94.7

* * *

tested on: MES-OV; test: MTT viability assay in MES-OV ovarian carcinoma cells; type: cell-based, human; conditions: 72 h, MTT, mean ± SD
Parameter Measured: pIC50
Units for pIC50: none; it is -log10 of a concentration expressed in mol/L.

Exercise: Which value of pIC50 has been reported for N.N.O=C([O-])C1(C(=O)[O-])CCC1.[Pt+2] [carboplatin, reference compound] in the records?
Solution: 4.35

* * *

test system: SK-OV-3/CBP; assay: MTT viability assay in carboplatin-resistant SK-OV-3/CBP cells; type: cell-based, human; settings: 72 h; resistant subline vs parental line
Marks after values point to notes of the source that are not given here.
Parameter Measured: relative resistance (IC50 SK-OV-3/CBP divided by IC50 SK-OV-3)

Exercise: Which value of relative resistance (IC50 SK-OV-3/CBP divided by IC50 SK-OV-3) has been reported for Cc1ccnc(-c2cc(C)ccn2)c1.O=S(=O)([O-])C(F)(F)F.[Ag+].c1ccc(P(c2ccccc2)c2ccccc2)cc1 [Compound 2, [Ag(4,4′-CH3-2,2′-bipy)(PPh3)][CF3SO3]] in the records?
Solution: 1.5^n.s.

Exercise: Please give the result for O=S(=O)([O-])C(F)(F)F.OCc1ccnc(-c2cc(CO)ccn2)c1.[Ag+].c1ccc(P(c2ccccc2)c2ccccc2)cc1 [Compound 3, [Ag(4,4′-CH2OH-2,2′-bipy)(PPh3)][CF3SO3]] too.
Solution: 1.4^n.s.

Exercise: Please give the result for N.N.O=C([O-])C1(C(=O)[O-])CCC1.[Pt+2] [carboplatin, reference compound] too.
Solution: 1.6*

Exercise: Please give the result for O=S(=O)([O-])C(F)(F)F.[Ag+].c1ccc(-c2ccccn2)nc1.c1ccc(P(CCP(c2ccccc2)c2ccccc2)c2ccccc2)cc1 [Compound 4, [Ag(2,2′-bipy)(dppe)][CF3SO3]] too.
Solution: 0.8^n.s.

Exercise: Please give the result for O=S(=O)([O-])C(F)(F)F.[Ag+].c1ccc(-c2ccccn2)nc1.c1ccc(P(c2ccccc2)c2ccccc2)cc1 [Compound 1, [Ag(2,2′-bipy)(PPh3)][CF3SO3]] too.
Solution: 1.6^n.s.

* * *

test system: SK-OV-3; experiment: MTT viability assay in SK-OV-3 ovarian carcinoma cells; format: cell-based, human; conditions: 72 h, mean ± SD of three independent experiments
Parameter Measured: pIC50
Units for pIC50: none; it is -log10 of a concentration expressed in mol/L.

Exercise: pIC50 of N.N.O=C([O-])C1(C(=O)[O-])CCC1.[Pt+2] [carboplatin, reference compound] on SK-OV-3?
Solution: 4.25

The origin of these recorded values is paper PMC11056982.
